- subject_of_test: Neuropeptide Y receptor type 1 (Homo sapiens, UniProt P25929)
- Sequence (P25929 whole entry): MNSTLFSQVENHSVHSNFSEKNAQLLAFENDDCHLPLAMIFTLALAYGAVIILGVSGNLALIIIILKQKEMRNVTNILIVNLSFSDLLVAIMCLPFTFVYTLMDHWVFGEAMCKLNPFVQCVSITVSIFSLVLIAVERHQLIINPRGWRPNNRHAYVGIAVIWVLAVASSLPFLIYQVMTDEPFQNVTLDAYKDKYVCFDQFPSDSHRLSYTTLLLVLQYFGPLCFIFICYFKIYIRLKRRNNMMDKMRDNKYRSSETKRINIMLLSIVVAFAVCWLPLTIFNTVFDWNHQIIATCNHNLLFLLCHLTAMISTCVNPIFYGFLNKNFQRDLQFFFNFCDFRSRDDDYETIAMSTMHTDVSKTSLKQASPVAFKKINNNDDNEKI
result_type: AC50

[[record]]
compound = "CN1CCC(=C2c3ccccc3CCc3sccc32)CC1 [PIZOTYLINE]"
recorded_result = "> 30 µM"


So what does the record say about AC50 for CCC(C)n1ncn(-c2ccc(N3CCN(c4ccc(OCC5COC(Cn6cncn6)(c6ccc(Cl)cc6Cl)O5)cc4)CC3)cc2)c1=O (stereo not drawn) [ITRACONAZOLE] ?
> 30 µM

So what does the record say about AC50 for O=C1Nc2ccc(Cl)cc2[C@@](C#CC2CC2)(C(F)(F)F)O1 [EFAVIRENZ] ?
> 30 µM

----------
Quick reference: AC50 of the listed items.
- subject_of_test: Alpha-1A adrenergic receptor (Homo sapiens, UniProt P35348)
- Sequence (P35348 whole entry): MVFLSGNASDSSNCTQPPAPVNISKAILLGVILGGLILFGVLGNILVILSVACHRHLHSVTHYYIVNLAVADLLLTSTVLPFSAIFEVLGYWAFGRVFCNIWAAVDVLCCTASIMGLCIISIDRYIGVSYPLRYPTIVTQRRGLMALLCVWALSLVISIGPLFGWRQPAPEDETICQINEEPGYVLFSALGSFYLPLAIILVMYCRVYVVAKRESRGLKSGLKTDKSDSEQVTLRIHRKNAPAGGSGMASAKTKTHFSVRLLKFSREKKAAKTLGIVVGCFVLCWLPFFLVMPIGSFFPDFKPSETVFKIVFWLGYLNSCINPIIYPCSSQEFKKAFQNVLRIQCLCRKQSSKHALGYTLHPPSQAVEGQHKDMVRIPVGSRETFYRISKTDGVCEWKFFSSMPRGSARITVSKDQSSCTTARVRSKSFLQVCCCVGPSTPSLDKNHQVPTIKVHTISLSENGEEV
- Type: functional, cell-based

[[record]]
compound = "O=C(OCC(O)CO)c1ccccc1Nc1ccnc2cc(Cl)ccc12 (stereo unspecified)"
subject_of_test = "Alpha-1A adrenergic receptor (Homo sapiens, UniProt P35348)"
recorded_result = "> 30 µM"

[[record]]
compound = "O=C(O)c1cc(O)ccc1O"
subject_of_test = "Alpha-1A adrenergic receptor (Homo sapiens, UniProt P35348)"
recorded_result = "> 30 µM"

[[record]]
compound = "CC(=O)Oc1c(C)c(C)c2c(c1C)CC[C@@](C)(CCC[C@H](C)CCC[C@H](C)CCCC(C)C)O2"
subject_of_test = "Alpha-1A adrenergic receptor (Homo sapiens, UniProt P35348)"
recorded_result = "> 30 µM"

[[record]]
compound = "NNc1nnc(NN)c2ccccc12 [DIHYDRALAZINE]"
subject_of_test = "Alpha-1A adrenergic receptor (Homo sapiens, UniProt P35348)"
recorded_result = "> 30 µM"

[[record]]
compound = "CC(=O)OCC(=O)[C@@]1(O)CC[C@H]2[C@@H]3CCC4=CC(=O)C=C[C@]4(C)[C@@]3(Cl)[C@@H](Cl)C[C@@]21C [DICHLORISONE ACETATE]"
subject_of_test = "Alpha-1A adrenergic receptor (Homo sapiens, UniProt P35348)"
recorded_result = "> 30 µM"

[[record]]
compound = "CCOc1ccc(Cc2cc([C@@H]3O[C@H](CO)[C@@H](O)[C@H](O)[C@H]3O)ccc2Cl)cc1"
subject_of_test = "Alpha-1A adrenergic receptor (Homo sapiens, UniProt P35348)"
recorded_result = "> 30 µM"


So what does the record say about AC50 for O=c1[nH]c(=O)n([C@H]2C[C@H](O)[C@@H](CO)O2)cc1F ?
> 30 µM

So what does the record say about AC50 for COc1cc([C@@H]2c3cc4c(cc3[C@H](O)[C@H]3COC(=O)[C@H]23)OCO4)cc(OC)c1OC ?
> 30 µM
